- System: T47D
- METHOD: NCI tumour cell line growth inhibition, 48 h
The source made the active and inactive calls. Rule as the data show it: active = GI50 up to about 1.1 µM and inactive = higher.
Classes used: True for active, False for inactive

[
  {
    "COMPOUND": "Nc1nc(N)c(N=O)c(Nc2ccc(O)cc2)n1",
    "ANSWER LABEL": "False"
  },
  {
    "COMPOUND": "Cn1c(-c2ccccc2)cc(-c2ccc3c(c2)OCO3)c1-c1cccs1",
    "ANSWER LABEL": "False"
  },
  {
    "COMPOUND": "C=CCOC(=O)[C@@H]1C[C@@H](OC(C)(C)C)CN1C(=O)[C@@H]1[C@H]2OC(C)(C)O[C@H]2CN1C(=O)OCC1c2ccccc2-c2ccccc21",
    "ANSWER LABEL": "False"
  },
  {
    "COMPOUND": "CC(=O)O[C@@H]1C[C@@]23C[C@@]24CC[C@H](OC2OCC(O)C(O)C2O)C(C)(C)[C@@H]4CC=C3[C@]2(C)C[C@@H]3OC4(C[C@@H](C)[C@@H]3[C@@]12C)OC(O)[C@@]1(C)O[C@@H]41 (stereo not given in full)",
    "ANSWER LABEL": "False"
  },
  {
    "COMPOUND": "O=Cc1coc2ccccc2c1=O",
    "ANSWER LABEL": "False"
  },
  {
    "COMPOUND": "COc1cc([C@@H]2c3cc4c(cc3[C@@H](c3c(O)cc(O)c5c3O[C@H](c3ccc(O)c(O)c3)[C@@H](O)C5)[C@H]3COC(=O)[C@H]23)OCO4)cc(OC)c1OC",
    "ANSWER LABEL": "False"
  },
  {
    "COMPOUND": "Cn1c(=O)n(-c2c3ccccc3c(Cl)c3ccccc23)n(C(C)(C)C)c1=O",
    "ANSWER LABEL": "False"
  },
  {
    "COMPOUND": "COc1cc(CC(C)=O)cc(OC)c1",
    "ANSWER LABEL": "False"
  },
  {
    "COMPOUND": "COc1cccc(/C(CC(O)(C(F)(F)F)C(F)(F)F)=N\\N(C)C)c1",
    "ANSWER LABEL": "False"
  },
  {
    "COMPOUND": "COc1cc(Nc2nc3ccccc3nc2C(=O)O)cc(OC)c1OC",
    "ANSWER LABEL": "False"
  },
  {
    "COMPOUND": "Oc1cc(Br)cc2cccnc12",
    "ANSWER LABEL": "False"
  },
  {
    "COMPOUND": "COc1ccc2[nH]c3c(c2c1)CC(=O)N1CCC[C@H](C1)CC31OCCCO1",
    "ANSWER LABEL": "False"
  },
  {
    "COMPOUND": "Oc1ccccc1C1=NOC(c2ccc(C(F)(F)F)cc2)C1 (stereo not given)",
    "ANSWER LABEL": "True"
  },
  {
    "COMPOUND": "CCCC1(N2C(=O)c3ccc4c5c(ccc(c35)C2=O)N(C2(CCC)CCCCC2)C4=O)CCCCC1",
    "ANSWER LABEL": "False"
  },
  {
    "COMPOUND": "O=c1oc2ccccc2c(-c2ccc(O)cc2)c1Oc1ccccc1",
    "ANSWER LABEL": "False"
  }
]
